B1: GA-binding protein alpha chain, residues 172 to 250; numbered along this chain, Q06546 (parent)
chain: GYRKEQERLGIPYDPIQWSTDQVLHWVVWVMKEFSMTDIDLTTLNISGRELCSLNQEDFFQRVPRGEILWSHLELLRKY

variants of: B1; test: abundance fitness (aPCA) (normalised: wild type 0, dead -1); higher = more abundant; growth selection in yeast, the domain comes from the species named; details: Homo sapiens
Quick rule for you: abundance fitness at -0.04 or higher means condition met, lower means condition not met.

# check: abundance fitness of `GYRKEQERLGIPYDPIQWSTDQVLHWVVWVMKEFSMTDIDLTTLNISGRELCSLNQEGFFQRVPRGEILWSHLELLRKY` is greater than or equal to -0.04
condition not met

# check: abundance fitness of `GYRKEQERLGIPYDPIQWSTDQVLHWVVWVMKEFSMTDIDLTTLNISGRELCSLNQEDFFQRVPRGEIDWSHLELLRKY` is greater than or equal to -0.04
condition not met

# check: abundance fitness of `GYRKEQERLGIPYDPIQWSTDQVLHWVVWVMKEFSMTDIDLTTLNISGRELCSLNQEDFFQRVPRGECLWSHLELLRKY` is greater than or equal to -0.04
condition not met

# check: abundance fitness of `GYRKEQERLGIPYDPIQWSTDQVLHWVVWVMKEFSMTDIDLTTLNISGRELCTLNQEDFFQRVPRGEILWSHLELLRKY` is greater than or equal to -0.04
condition not met

# check: abundance fitness of `GYRKEQERLGIPYDPIQWSTDQVLHWVVWVMKEFSMTDIDLTTLNISGRELCSLNIEDFFQRVPRGEILWSHLELLRKY` is greater than or equal to -0.04
condition not met

# check: abundance fitness of `GYRKEQERLGIPYDPIQWSTDQVLHWVVWVMKEFSMTDIDLTTLNISGRELCSLNQEDFFQRVPRGEILWSHLEELRKY` is greater than or equal to -0.04
condition met

# check: abundance fitness of `GYRKEQERLGIPYDPQQWSTDQVLHWVVWVMKEFSMTDIDLTTLNISGRELCSLNQEDFFQRVPRGEILWSHLELLRKY` is greater than or equal to -0.04
condition met

# check: abundance fitness of `GYRKETERLGIPYDPIQWSTDQVLHWVVWVMKEFSMTDIDLTTLNISGRELCSLNQEDFFQRVPRGEILWSHLELLRKY` is greater than or equal to -0.04
condition not met

# check: abundance fitness of `GYRKEQERLGIPYDPIQWSTDQVLHWVVWVMKEFSMTDIDLTTLNISGRELCSLNQEDFFQRVPYGEILWSHLELLRKY` is greater than or equal to -0.04
condition met

# check: abundance fitness of `GYRKEQERLGIPYDPIQWSTDQVLHWVVWVMKEFSMTDIDLTTLNISGRELCSLNQEDFFQGVPRGEILWSHLELLRKY` is greater than or equal to -0.04
condition not met

# check: abundance fitness of `GYRKEQERLGIPYDPIQWSTDQVLHWVVWVMKEFSMTDIDLTTLNISGRELCSLNQEDFFQRVPRGEILWSHLELLRKC` is greater than or equal to -0.04
condition not met

# check: abundance fitness of `GYRKEQERLGIPYDPIQWSTDQVLHWVVWVMKEFSMRDIDLTTLNISGRELCSLNQEDFFQRVPRGEILWSHLELLRKY` is greater than or equal to -0.04
condition met

Values compiled from the Human Domainome abundance scans (Beltran et al. 2025).
